Data provenance is the supplement of paper PMC11502859.

test system: HEK293T; experiment: median enrichment of reporter reads in eGFP-reduced (low/intermediate) vs eGFP-high sorted cells (eGFP-extension fusion abundance) (ratio); higher = stronger loss of eGFP-fusion protein abundance (more destabilising extension)
Measured Parameter: median enrichment
Give bare numbers.

# count of solved cases: 6
YNFFHLRNYCDL [CHD6]: 19.1
AGRAPPCMMGKAILPLPPPCFCCLFGEGGGEVGAAAPHPSSLLICTHWPLQTRTSGASPSPPPPCLAAGVAMMGWSSLGQGVL [SCN1B]: 3.87
YWAPSL [MSN]: 2.04
QHLVQQ [IFNA13]: 0.328
KTQMRASLRLPETARPKSQVQSFPTPLKFIVSSREKQIPIHPTNRCIVWVLEVPSKLLLVRLG [PPEF1]: 14.2
RASVGG [MDFI]: 9.54

Provide median enrichment for all items below, preserving their order.
1. LHGFQASGSLTISLLRVSPGNCLTKSQAQGLLSIYLISERLF [LIMCH1]
2. YMCPTDPGTFLPQCCACKYTVKLSLYHFDRGED [GLRA2]
3. KICQDKGSEDWTCSDIGVLLPSS [MAPK1]
4. LTSSLQRSESGGGSACREGLDLHIFSGVVRASPYLLLSPCEEDPDLASFPRRGWGVPRVPVLEGPPSPSLITVLFSAPPSAAR [ZNF646]

Resp:
[33.9, 11.1, 2.3, 4.64]

Provide median enrichment for all items below, preserving their order.
1. RPPAPNSIIYYGAAPPGWPDPWALGLWILVPCLENSPPLAPHCSL [CYTH2]
2. RVEPTSLPSQQARN [TMEM143]
3. YELEQLGNKLSTSRHLLSFAMCLMP [OR51A7]
4. YHPHSSSSPPNRLGSRGLLCKPTGQLWLRAHLLQRVPQPLLNLDFCPNPLPVTRSISLSLLSNGAWSTEASEAIALLAEVKRT [SLC18A3]
5. LAFRLALAPGTRSPRAPGPLPAPAAPSPSPGCVSLPMTLSWGPPARPGTFLPNPQTHDSLPHRLPQRPPTHFILSGHPSDLDP [SCRT2]

Resp:
8.4
0.919
3.52
4.57
3.18

Provide median enrichment for all items below, preserving their order.
1. SRVSGKKHSCMSICSWNQFL [STYK1]
2. CHLRNI [MLLT10]
3. KHVVLWVHFV [ABHD3]
4. CTKAWA [IFNGR2]
5. WRPNSRTPK [SNRNP35]
6. RAPAVIIQHDAA [PLXNA1]

Resp:
[11, 1.38, 10.5, 0.778, 0.861, 5.99]

---

system: HEK293T; assay: median enrichment of reporter reads in eGFP-reduced (low/intermediate) vs eGFP-high sorted cells (eGFP-extension fusion abundance) (ratio); higher = stronger loss of eGFP-fusion protein abundance (more destabilising extension)
Note to self: class = bucket of median enrichment, per lower band (below 5), central band (5 to below 6), upper band (6 or more)

Below are worked cases with known answers.
RALVPWQRDEKLQALSPAWAGSGARGCDSSRRVETLGWTGGGQRPAGGAPGMCPDMVNL [VAV1]: lower band
WDRAGDEARPWTLHPAIETGLRRKEDPGQDPGRLATPPTPRTYSR [NUPR1]: central band

Req: Hi, small favor: classify WRKRDAGTHPCLREVWLSPNPPHRPPFTKHLSCLMCPIELHSVRLDAVISGTYVTMFAEAPGVVGRGGRCG [RNF144A] by its median enrichment when you get a moment.
Resp: upper band

Req: Hi, small favor: classify YKYTLTERDNRQRGSVAEDPLLCLY [TNIP3] by its median enrichment when you get a moment.
Resp: upper band

Req: Hi, small favor: classify LELLCFDS [MAP4K3] by its median enrichment when you get a moment.
Resp: lower band

Req: Hi, small favor: classify WTTNTQRNNLFTTPGCMIEGEASTSTSRGP [TTLL5] by its median enrichment when you get a moment.
Resp: upper band

Req: Hi, small favor: classify GSRGRGGESPPRPPLPSPPGSRGSGLGRLPIPLLQAALIPHRN [FBXO46] by its median enrichment when you get a moment.
Resp: central band

Req: Hi, small favor: classify CNDKSRSKEIVGPKGKEGKSAPRLGPGTHTPPDHLGNSRALRSRMLTKSNIQSLVNQDAVSPSVWQSVALAAGKLKADFHSYV [RNF150] by its median enrichment when you get a moment.
Resp: lower band

Req: Hi, small favor: classify ELLPLSTRSSWQRELRTAAALSVRWRPTSRFCPALCG [ACVR1B] by its median enrichment when you get a moment.
Resp: upper band

Req: Hi, small favor: classify RNRGLNVFRVRMP [PARD6B] by its median enrichment when you get a moment.
Resp: lower band

---

test system: HEK293T; test: median enrichment of reporter reads in eGFP-reduced (low/intermediate) vs eGFP-high sorted cells (eGFP-extension fusion abundance) (ratio); higher = stronger loss of eGFP-fusion protein abundance (more destabilising extension)
Answer each item with its documented median enrichment.
Give bare numbers.

# count of solved cases: 5
QPKTRGSDLC [EPC2]: 0.415
WAGLRGMVRTSPP [NANS]: 6.83
LARAPSGGITDLMTTLALLPCRVQVLSPHFHLPAPRGPFPFMGLPPSDAQEGSSAMTGLLPLTSREHPLDLGRWWSQGWAAYF [PCDH1]: 6.44
KAGTDLGPKIPFQRN [RBMXL2]: 0.175
RESAGIEQSSPAQVSSLP [ZNF622]: 0.239

We next turn to a different sequence, shown below.
// recorded median enrichment for SKTWPENPQVLQRKTELGKGESWKDGAD [ABHD15] : 0.348

---

test system: HEK293T; assay: median enrichment of reporter reads in eGFP-reduced (low/intermediate) vs eGFP-high sorted cells (eGFP-extension fusion abundance) (ratio); higher = stronger loss of eGFP-fusion protein abundance (more destabilising extension)
Measured Parameter: median enrichment
Give bare numbers.

LKDRFFKLT [RBBP6]: 3.7
LTAPPPPLSPGPGG [VMO1]: 8.99
TTTTTTTTT [Thr09]: 0.552
QLGAHIKCFILHTWTLKPGCACILKQQSSHSFRQMFSVSEENMFSEEKTFRQMFSEEKKGKLGVGRC [PRAME]: 9.08
WFC [HNRNPF]: 2.6
YYYLQMKLTYTDLSSLMKKIRCYPIK [RBM11]: 13
WVGGISETGKVAALSHFFWNSWWSPGLGHCLSPACFFVRSGIISKCS [SLC35E2A]: 40.8
WKMKIP [N4BP2L2]: 1.67
QDFMHSSERVTVTTVLSPISHKLLFVSKRMLLLLHCFPFAGTCWCLLLNWPALLAVWHCSLGRLLCSLYLHYRLVNLPTSSL [DCUN1D4]: 6.12
YLFFFFLIEVLVL [FAM160A1]: 25.1

Provide median enrichment for all items below, preserving their order.
1. YCLKGFY [GNL2]
2. WWWWWW [Trp06]
3. YFNLCNLTNFHDK [NUP107]

Resp:
[8.39, 3.74, 9.37]

---

tested on: HEK293T; experiment: median enrichment of reporter reads in eGFP-reduced (low/intermediate) vs eGFP-high sorted cells (eGFP-extension fusion abundance) (ratio); higher = stronger loss of eGFP-fusion protein abundance (more destabilising extension);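 note: lentiviral eGFP-IRES-mCherry reporter pool sorted by FACS 96 h post-transduction, gated on mCherry-high cells, Illumina read counts normalized per million, median across four biological replicates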
Param threshold (3) applies to median enrichment; output Satisfied when value >= threshold, Not satisfied when value < threshold.

Below are worked cases with known answers.
LLLPGGEQPTRCRFALRGASYIGTLLSLQNDDTNANDQM [TFB1M]: Satisfied
YSWANDH [SEMA4F]: Not satisfied
LNQFLGLTAM [BTN2A1]: Satisfied
QSYHSGC [USP32]: Not satisfied
KKKKKKK [Lys07]: Not satisfied

Req: Does the reported median enrichment for LQPIYLFISLWGLTH [GUCY1A1] fall at or above the 3 mark?
Resp: Satisfied

Req: Does the reported median enrichment for WERPGGGAHWEGQDSVPALILPCPDVSCFAQRSFLSTPLIPRLVPREGWRPGHGPSRRGREGRRGRGRIEPIPAGEGEPSVHL [ASIC4] fall at or above the 3 mark?
Resp: Not satisfied

Req: Does the reported median enrichment for LAPRAEKMLGTHPAPPSTNTSGWGRGRTL [VPS26B] fall at or above the 3 mark?
Resp: Not satisfied

Req: Does the reported median enrichment for YLKNMYPL [ERCC5] fall at or above the 3 mark?
Resp: Satisfied

Req: Does the reported median enrichment for RVAYFMQS [PDE5A] fall at or above the 3 mark?
Resp: Satisfied

Req: Does the reported median enrichment for TLTMPRPHPVQHSQSSHLHPRTVGAGRHFPLEHVLRSITLGPTARLSLPPGSCMRSPDQLDHHFAQPLNTMHQASISQFPLAF [SCARA5] fall at or above the 3 mark?
Resp: Satisfied

Req: Does the reported median enrichment for SSSSSSS [Ser07] fall at or above the 3 mark?
Resp: Not satisfied

Req: Does the reported median enrichment for LDFMHSSERVTVTTVLSPISHKLLFVSKRMLLLLHCFPFAGTCWCLLLNWPALLAVWHCSLGRLLCSLYLHYRLVNLPTSSL [DCUN1D4] fall at or above the 3 mark?
Resp: Satisfied

Req: Does the reported median enrichment for YFTIKVKQRKLYAGHICMRIQLFSGCSTTK [TMPRSS11A] fall at or above the 3 mark?
Resp: Satisfied

Req: Does the reported median enrichment for YNLIASTLKDKTSNSHLL [KIF9] fall at or above the 3 mark?
Resp: Not satisfied

Req: Does the reported median enrichment for WVVGSPADGSTWTWG [GABARAPL1] fall at or above the 3 mark?
Resp: Satisfied

Req: Does the reported median enrichment for QDGWGWR [SCPEP1] fall at or above the 3 mark?
Resp: Not satisfied
